# Study system: CSNK1G1 (human)
# Assay name: KINOMEscan competition binding
# Measurement conditions: compound 10.0 µM
Property name: kinase still bound, per cent of control (%)
# value in %; strip the unit string

Here is how some compounds turned out for kinase still bound, per cent of control.
CN(C)C/C=C/C(=O)Nc1ccc(C(=O)Nc2cccc(Nc3nccc(-c4cccnc4)n3)c2)cc1; 0.5
N#CCNC(=O)c1ccc(-c2ccnc(Nc3ccc(N4CCOCC4)cc3)n2)cc1; 100
CCN(CC)CCCCNc1ncc2c(n1)N(C)C(=O)N(c1c(Cl)c(OC)cc(OC)c1Cl)C2; 100

Task: Indicate the recorded kinase still bound, per cent of control value for this compound: `COc1ccc(N(C(=O)Oc2c(C)cccc2C)c2ccnc(Nc3ccc(N4CCN(C)CC4)cc3)n2)c(OC)c1`
Output: 95

Task: Give the reported value of kinase still bound, per cent of control for this record: `CNC(=O)c1cc(Oc2ccc(NC(=O)Nc3ccc(Cl)c(C(F)(F)F)c3)cc2)ccn1`
Output: 100

Task: Output kinase still bound, per cent of control of `C=CC(=O)Nc1ccc(CN(C(=O)Nc2c(Cl)c(OC)cc(OC)c2Cl)c2cc(Nc3ccc(N4CCN(C)CC4)cc3)ncn2)cc1`
Output: 100

Task: Tell me its kinase still bound, per cent of control given `CCN1CCN(C(=O)Cc2ccc(Nc3ncc(F)c(Nc4ccc(C(=O)Nc5ccccc5Cl)cc4)n3)cc2)CC1` as the entry.
Output: 100

Task: Complete the entry with kinase still bound, per cent of control for `COc1cc2ncnc(-n3nc(-c4ccccn4)nc3N)c2cc1OC`
Output: 33

Task: Identify measured kinase still bound, per cent of control corresponding to `COc1cc2ncn(-c3cc(OCc4ccccc4C(F)(F)F)c(C(N)=O)s3)c2cc1OC`
Output: 86
